Assay: CCTE_Shafer_MEA_dev_network_spike_peak: CCTE's Neural Network Formation Assay for Mean Number of Electrodes in Network Spike, Shafer Lab (AID 2284049)
Activity calls are given as the source filed them. The calls were made as follows: active = hit-call score of the fitted dose curve at least 0.9, where 1 is the maximum; inactive = score below 0.9.
Hello, when you answer, please use one of the following outcomes: active, inactive

Below, 4 compounds whose answers are already recorded.
- Compound: "CN(C)CCC(c1ccc(Cl)cc1)c1ccccn1 (stereo not given)"
  Label: "inactive"
- Compound: "C[C@H](CS)C(=O)N1CCC[C@H]1C(=O)O"
  Label: "inactive"
- Compound: "c1ccc2cc3c4ccccc4c4ccccc4c3cc2c1"
  Label: "active"
- Compound: "COc1ccc2cc3[n+](cc2c1OC)CCc1cc2c(cc1-3)OCO2"
  Label: "active"

Now look at this entry.
Just curious, what result did `CC1(C)S[C@@H]2[C@H](NC(=O)[C@H](N)c3ccc(O)cc3)C(=O)N2[C@H]1C(=O)O` get here?
inactive

* * *

Assay: TOX21_p53_BLA_p5_viability: Viability Assessment in the Tox21 HCT-116 p53 Agonism Beta-lactamase Assay, Phase 5 (AID 2283600)
Inconclusive results are not listed. Active and inactive are the calls of the source. How the source made its calls: active means hit-call score of the fitted dose curve at least 0.9, where 1 is the maximum; inconclusive means response in the unintended direction; inactive means score below 0.9.
Hello, when you answer, please use one of the following outcomes: active, inactive

Below, 5 compounds whose answers are already recorded.
- Compound: "N[C@H]1C(O)O[C@H](CO)[C@@H](O)[C@@H]1O (stereo not given in full)"
  Label: "inactive"
- Compound: "O=C1OC2(c3ccc(O)cc3Oc3cc(O)ccc32)c2ccc(N=C=S)cc21"
  Label: "inactive"
- Compound: "CC(C)(C)CC(C)(C)c1ccc(O)c(Cc2ccc(Cl)cc2Cl)c1"
  Label: "active"
- Compound: "Cc1cc(-n2c(=O)[nH]c(=O)n(C)c2=O)ccc1Oc1ccc(S(=O)(=O)C(F)(F)F)cc1"
  Label: "inactive"
- Compound: "Nc1[nH]c(=O)ncc1F"
  Label: "inactive"

Just curious, what result did `COc1cc2c(cc1OC)-c1cc3ccc(OC)c(OC)c3c[n+]1CC2` get here?
inactive

Try the compound `C[C@]12O[C@H](C[C@]1(O)CO)n1c3ccccc3c3c4c(c5c6ccccc6n2c5c31)CNC4=O`
inactive

* * *

Experiment: ATG_RORE_CIS: Attagene CIS-FACTORIAL HepG2 Assay for human RAR-related Orphan Receptor Element (RORE) (AID 2282959)
Conditions: HepG2 Attagene cis-factorial RORE reporter, mRNA; actives raise or lower the signal
Active and inactive are the calls of the source. The calls were made as follows: active = hit-call score of the fitted dose curve at least 0.9, where 1 is the maximum; inactive = score below 0.9.
Value Type: outcome

Example cases with answers are listed next.
- Compound: "O=S(=O)(O)c1cccc2ccccc12"
  Value: "inactive"
- Compound: "O=C(O)/C=C\\C(=O)O"
  Value: "inactive"
- Compound: "CC1(C)S[C@@H]2[C@H](NC(=O)[C@H](N)c3ccccc3)C(=O)N2[C@H]1C(=O)O"
  Value: "inactive"
- Compound: "c1cc[c]([Bi]([c]2ccccc2)[c]2ccccc2)cc1"
  Value: "inactive"
- Compound: "COC(=O)c1ccccc1"
  Value: "inactive"
- Compound: "CCCCCC1CCCC(=O)O1 (stereo not drawn)"
  Value: "inactive"
- Compound: "NC(=O)c1ccc([N+](=O)[O-])cc1Cl"
  Value: "inactive"
- Compound: "OCCOCCOCCOCCOCCO"
  Value: "inactive"
- Compound: "CCO[Si](CCCN)(OCC)OCC"
  Value: "inactive"
- Compound: "CN(C)Cc1cc(C(C)(C)C)c(O)c(C(C)(C)C)c1"
  Value: "inactive"

Entry `Clc1ccc(Sc2cc(Cl)c(Cl)cc2Cl)cc1` : reported outcome = ?
inactive

Try the compound c1cc(N(CC2CO2)CC2CO2)ccc1Cc1ccc(N(CC2CO2)CC2CO2)cc1 (stereo not drawn)
inactive

Try the compound `CC1=C(CC=O)C(C)(C)CCC1`
inactive
